B1: HDAC6 (parent)
chain: YVHHQALLDVKNIAHQNKFGEDMP

# Variants of: B1
# procedure_text: protein stability index of a GFP-peptide fusion (GPS, HEK-293T) (PSI 1-6); higher = more stable;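 further: lentivirally expressed fusions sorted by FACS into six bins by GFP to DsRed ratio, PSI derived from sequencing read proportions per bin multiplied by bin number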
# condition_context: c terminus: a fixed tail appended
Tag: y if measured protein stability index is not below 2, n if it is.

seq | class
YVHHQALLDVMNIAHQNKFGEDMP | n
YVHHQALLDVKNIAEQNKFGEDMP | y
YVHHQALLDVKNIAHQNKFGIDMP | n
YVHHQALLDVKNIAHQNKFGVDMP | n
YVHHQALLDVANIAHQNKFGEDMP | n

Form field: protein stability index at least 2? Entry: YVHHQALLDVKNFAHQNKFGEDMP n

Form field: protein stability index at least 2? Entry: YVHHQALLDVKNIAHQNKFSEDMP n

Form field: protein stability index at least 2? Entry: YVHHQALLDVKNIAPQNKFGEDMP y

Form field: protein stability index at least 2? Entry: YVHHQALLDVKNIAHQNKFGEMMP n

Form field: protein stability index at least 2? Entry: YVHHQALLHVKNIAHQNKFGEDMP y
